Hey, just so you know, these numbers are from patent US20240043427A1.

# target: CD73 (Homo sapiens (Human), UniProt P21589)
# Sequence (P21589 27-574): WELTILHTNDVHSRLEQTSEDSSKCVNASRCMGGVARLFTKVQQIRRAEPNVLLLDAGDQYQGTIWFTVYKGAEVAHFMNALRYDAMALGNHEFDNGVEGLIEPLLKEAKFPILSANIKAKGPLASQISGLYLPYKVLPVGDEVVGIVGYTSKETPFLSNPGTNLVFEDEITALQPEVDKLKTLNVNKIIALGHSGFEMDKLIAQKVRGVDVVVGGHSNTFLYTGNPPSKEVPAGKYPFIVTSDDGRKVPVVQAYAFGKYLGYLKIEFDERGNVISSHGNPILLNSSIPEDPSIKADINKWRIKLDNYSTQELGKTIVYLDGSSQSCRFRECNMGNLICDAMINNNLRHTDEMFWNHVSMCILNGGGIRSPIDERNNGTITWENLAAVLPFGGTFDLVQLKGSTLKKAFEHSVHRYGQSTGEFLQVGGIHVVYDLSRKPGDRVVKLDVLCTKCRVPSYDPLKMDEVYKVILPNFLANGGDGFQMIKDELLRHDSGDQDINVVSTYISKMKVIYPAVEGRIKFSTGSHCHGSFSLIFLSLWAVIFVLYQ
# Assay type: biochemical
# condition-info: 1 mM NaH2PO4 in enzyme buffer, CD73 0.3 nM, AMP 15 uM
pIC50: −log10 of the molar value.
endpoint: pIC50

molecule=O=c1[nH]cc(-c2cc(N3C[C@@H](Oc4ncc(C(F)(F)F)cn4)C(F)(F)C3)c3nccn3n2)c(=O)[nH]1 endpoint_value=8.35
molecule="O=c1[nH]cc(-c2cc([C@H]3C[C@@H]3c3ccc4c(c3)OC(F)(F)O4)c3nccn3n2)c(=O)[nH]1 (racemic) [Example 110]" endpoint_value=8.53
molecule="O=c1[nH]cc(-c2cc([C@H]3C[C@@H]3c3ccc4cccnc4c3)c3nccn3n2)c(=O)[nH]1 (racemic)" endpoint_value=8.81
molecule="O=c1[nH]cc(-c2cc([C@H]3C[C@@H]3c3ccc(OC(F)(F)F)nc3)c3nccn3n2)c(=O)[nH]1 (racemic)" endpoint_value=8.09
molecule=N#Cc1cc(F)c([C@H]2C[C@@H]2c2cc(-c3c[nH]c(=O)[nH]c3=O)nn3c(F)cnc23)c(F)c1 endpoint_value=8.79
molecule=O=c1[nH]cc(-c2cc(N3CC(F)(c4ccccc4)C3)c3nccn3n2)c(=O)[nH]1 endpoint_value=7.83
molecule="O=C1N(CC2(F)CC2)c2cc([C@H]3C[C@@H]3c3cc(-c4c[nH]c(=O)[nH]c4=O)nn4c(F)cnc34)ccc2C12CC2 (racemic)" endpoint_value=8.53

----------
pEC50 values, listed per item
# target: CD73 (Homo sapiens (Human))
# experiment-description: MDA-MB-231 Cell Based CD73 Activity Assay (DMEM)
# condition-info: MDA-MB-231-GFP cells, DMEM medium with 10% human plasma, 200 uM AMP
pEC50: −log10 of the molar value.
endpoint: pEC50

molecule=CC(C)(O)CCNc1cc(-c2c[nH]c(=O)[nH]c2=O)nn2ccnc12 target="CD73 (Homo sapiens (Human))" endpoint=pEC50 endpoint_value=6.15
molecule=O=c1[nH]cc(-c2cc(N3CCC4(CC4)C3)c3nccn3n2)c(=O)[nH]1 target="CD73 (Homo sapiens (Human))" endpoint=pEC50 endpoint_value=7.89
molecule="O=c1[nH]cc(-c2cc(N3CCC4(CCOC4)C3)c3nccn3n2)c(=O)[nH]1 (stereo not shown)" target="CD73 (Homo sapiens (Human))" endpoint=pEC50 endpoint_value=7.40
molecule=C[C@@H]1CN(c2cc(-c3c[nH]c(=O)[nH]c3=O)nn3c(F)cnc23)CC1(F)F target="CD73 (Homo sapiens (Human))" endpoint=pEC50 endpoint_value=7.74

----------
# target: CD73 (Homo sapiens (Human))
# experiment-description: MDA-MB-231 Cell Based CD73 Activity Assay (DMEM)
# condition-info: MDA-MB-231-GFP cells, DMEM medium with 10% human plasma, 200 uM AMP
Recorded measurements of EC50, one per entry
endpoint: EC50 (nM)

compound=N#Cc1ccc([C@H]2C[C@@H]2c2cc(-c3c[nH]c(=O)[nH]c3=O)nn3ccnc23)cc1Cl endpoint=EC50 endpoint_value=4.46
compound=O=c1[nH]cc(-c2cc(NCC(F)F)c3nccn3n2)c(=O)[nH]1 endpoint=EC50 endpoint_value=573
compound=O=c1[nH]cc(-c2cc([C@@H]3C[C@H]3c3ccc(Cl)cc3)c3nccn3n2)c(=O)[nH]1 endpoint=EC50 endpoint_value=39
compound="O=c1[nH]cc(-c2cc(N3CCC(F)(c4ccc(C(F)(F)F)cc4)C3)c3nccn3n2)c(=O)[nH]1 (centres unmarked)" endpoint=EC50 endpoint_value=185
compound=O=C(Nc1ccc(F)cc1F)OCC(F)(F)COc1cc(-c2c[nH]c(=O)[nH]c2=O)nn2ccnc12 endpoint=EC50 endpoint_value=5.18
compound=CC1(C)CN(c2cc(-c3c[nH]c(=O)[nH]c3=O)nn3cc(C4CC4)nc23)CC1(F)F endpoint=EC50 endpoint_value=41.7
compound="O=c1[nH]cc(-c2cc([C@H]3C[C@@H]3c3ccc4ncsc4c3)c3ncc(F)n3n2)c(=O)[nH]1 (racemic)" endpoint=EC50 endpoint_value=2.16
compound=CC(C)(C)COc1cc(-c2c[nH]c(=O)[nH]c2=O)nn2ccnc12 endpoint=EC50 endpoint_value=124
